All values here come from patent US20160176867A1.

Experimental target: BRD4 bromo domain 1 [BRD4(1)] (Homo sapiens, UniProt O60885)
Construct: N-terminally His6-tagged BRD4(1) (amino acids 67-152)
Test: BRD4/acetylated peptide H4 binding assay (TR-FRET), BRD4 bromo domain 1
Condition notes: inhibition of BRD4(1)/Ac-H4 peptide interaction
pIC50: −log10 of the molar value.
Measured metric: pIC50

{"columns": ["Compound", "Reported result"],
 "data": [
  ["C[C@@H]1C(=O)N(C)c2ccc(Nc3cccc(C(=O)NCCN4CCN(C)CC4)c3)nc2N1Cc1ccccc1", 7.06]
]}

[1] COc1ccc(S(=O)(=O)N2CCOCC2)cc1Nc1ccc2c(n1)N(C1CCOCC1)[C@H](C)C(=O)N2C
[2] Cc1nnc(-c2cccc(Nc3ccc4c(n3)N(C3CCOCC3)[C@H](C)C(=O)N4C)c2)o1
IN: // which entry reports the smaller pIC50, 1 or 2 ? Write the label of whichever entry you select.
OUT: 2
(2: 6.75, 1: 7.59)

[A] C[C@@H]1C(=O)N(C)c2ccc(Nc3cccc(C(=O)N[C@H]4CC[C@H](N5CCN(CC6CC6)CC5)CC4)c3)nc2N1C1CCCCC1
[B] COCCN1c2nc(Nc3cccc(C(=O)NC4CCN(C)CC4)c3)ccc2N(C)C(=O)[C@@H]1C (stereo in doubt)
IN: Of A and B , whose reported pIC50 is the larger number? Output the label that corresponds to your choice.
OUT: A
